src = ChEMBL document CHEMBL5058564

tested on: Fibroblast; test: Incucyte cell viability with human fibroblast; format: toxicity, cell-based; details: 12 h, 10 µM, compound concentration 10 uM, replicate number 1, timepoint 12 hours; note: unitless GR value; below 1 slowed growth and below 0 cell loss
Label 1 for high-side Growth Rate (at or above 0.3) and -1 for low-side Growth Rate (below it).

Is the recorded value of Growth Rate equal to or greater than 0.3 for this compound? O=S(=O)(c1ccccc1)N(CC(F)(F)F)c1ccc(C(O)(C(F)(F)F)C(F)(F)F)cc1 [T091317]
-1

Is the recorded value of Growth Rate equal to or greater than 0.3 for this compound? COC1(C[S@@+]([O-])c2ccccc2)CCN(CCc2c[nH]c3ccc(F)cc23)CC1
1

Is the recorded value of Growth Rate equal to or greater than 0.3 for this compound? Nc1nc(-c2ccco2)c2cnn(Cc3ccccc3F)c2n1
-1

Is the recorded value of Growth Rate equal to or greater than 0.3 for this compound? Cc1cc(NC(=O)NCCN2CCC(O)(Cc3ccccc3)CC2)c2ccccc2n1 [PALOSURAN]
1

Is the recorded value of Growth Rate equal to or greater than 0.3 for this compound? Cc1cccc(NC(=O)CN2CCC(c3ccccn3)CC2)c1.Cl.Cl
-1
